# tgt: T1, Recombinant MBP-mutCALR Type 1 fusion protein (human)
# T1 construct: custom made at Cepter; also called recombinant mutCALR protein
# procedureSummary: SPR, IgG captured, 1:1 fit, Exp. 2

binder	reportedRelation	kon, M⁻¹ s⁻¹
anti-mutCALR antibody clone 137 (antibody, human IgG1, lambda, N297A, V domains shown, human IgG1 N297A variant of clone 15) VH: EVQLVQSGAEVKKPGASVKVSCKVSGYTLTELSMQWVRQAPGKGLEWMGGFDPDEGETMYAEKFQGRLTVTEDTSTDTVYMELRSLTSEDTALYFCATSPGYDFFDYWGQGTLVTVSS VL: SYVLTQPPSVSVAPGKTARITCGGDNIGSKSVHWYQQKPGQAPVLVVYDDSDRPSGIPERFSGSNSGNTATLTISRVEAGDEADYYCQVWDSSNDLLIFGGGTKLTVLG	=	7.51e+06
anti-mutCALR antibody clone 173 (antibody, human IgG1, lambda, N297A, V domains shown) VH: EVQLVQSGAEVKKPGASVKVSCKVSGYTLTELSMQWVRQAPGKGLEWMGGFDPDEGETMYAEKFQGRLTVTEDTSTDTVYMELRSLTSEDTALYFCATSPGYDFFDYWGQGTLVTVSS VL: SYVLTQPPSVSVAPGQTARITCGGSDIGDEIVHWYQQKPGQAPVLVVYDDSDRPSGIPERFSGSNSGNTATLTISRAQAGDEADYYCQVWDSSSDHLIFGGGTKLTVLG	=	5.35e+06
anti-mutCALR antibody clone 181 (antibody, human IgG1, lambda, N297A, V domains shown, human IgG1 N297A variant of clone 17) VH: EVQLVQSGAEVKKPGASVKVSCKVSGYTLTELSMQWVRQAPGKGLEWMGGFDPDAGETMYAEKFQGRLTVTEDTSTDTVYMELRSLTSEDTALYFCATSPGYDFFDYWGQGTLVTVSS VL: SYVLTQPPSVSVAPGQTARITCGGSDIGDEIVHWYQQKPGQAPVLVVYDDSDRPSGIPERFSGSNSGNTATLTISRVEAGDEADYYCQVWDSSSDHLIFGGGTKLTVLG	=	1e+07
anti-mutCALR antibody clone 186 (antibody, human IgG1, lambda, N297A, V domains shown, human IgG1 N297A variant of clone 17) VH: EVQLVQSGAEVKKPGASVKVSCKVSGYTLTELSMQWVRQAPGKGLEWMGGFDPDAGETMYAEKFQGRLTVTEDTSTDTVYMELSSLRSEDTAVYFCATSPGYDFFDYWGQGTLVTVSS VL: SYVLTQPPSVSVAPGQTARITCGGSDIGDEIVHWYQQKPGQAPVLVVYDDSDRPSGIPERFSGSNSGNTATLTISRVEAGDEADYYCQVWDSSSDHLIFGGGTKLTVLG	=	848000
anti-mutCALR antibody clone 189 (antibody, human IgG1, lambda, N297A, V domains shown) VH: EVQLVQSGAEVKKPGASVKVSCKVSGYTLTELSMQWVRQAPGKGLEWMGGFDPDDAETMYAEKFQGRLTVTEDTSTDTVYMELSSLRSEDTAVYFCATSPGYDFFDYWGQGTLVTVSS VL: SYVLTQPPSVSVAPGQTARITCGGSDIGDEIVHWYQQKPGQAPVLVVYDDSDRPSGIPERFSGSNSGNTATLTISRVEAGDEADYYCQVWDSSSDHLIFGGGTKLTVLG	>	1e+07
anti-mutCALR antibody clone 141 (antibody, human IgG1, lambda, N297A, V domains shown, human IgG1 N297A variant of clone 15) VH: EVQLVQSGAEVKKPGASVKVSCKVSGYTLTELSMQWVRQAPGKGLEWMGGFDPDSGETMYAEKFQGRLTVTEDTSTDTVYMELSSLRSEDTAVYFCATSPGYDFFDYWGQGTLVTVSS VL: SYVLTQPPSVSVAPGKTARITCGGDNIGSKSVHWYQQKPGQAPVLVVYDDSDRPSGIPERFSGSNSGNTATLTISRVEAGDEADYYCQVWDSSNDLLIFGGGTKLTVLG	=	4.18e+06
anti-mutCALR antibody clone 83 (antibody, human IgG1, lambda, N297A, V domains shown, human IgG1 N297A variant of clone 6) VH: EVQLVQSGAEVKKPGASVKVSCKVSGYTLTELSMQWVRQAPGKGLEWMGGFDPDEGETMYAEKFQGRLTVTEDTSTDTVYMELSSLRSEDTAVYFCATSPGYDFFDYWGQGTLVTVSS VL: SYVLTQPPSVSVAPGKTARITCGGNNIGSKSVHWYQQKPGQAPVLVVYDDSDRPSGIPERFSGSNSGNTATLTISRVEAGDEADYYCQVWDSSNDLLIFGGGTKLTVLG	=	5.62e+06
anti-mutCALR antibody clone 171 (antibody, human IgG1, lambda, N297A, V domains shown, human IgG1 N297A variant of clone 17) VH: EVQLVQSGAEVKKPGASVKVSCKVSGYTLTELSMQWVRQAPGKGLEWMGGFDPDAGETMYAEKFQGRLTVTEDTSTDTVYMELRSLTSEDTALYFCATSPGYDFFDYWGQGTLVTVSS VL: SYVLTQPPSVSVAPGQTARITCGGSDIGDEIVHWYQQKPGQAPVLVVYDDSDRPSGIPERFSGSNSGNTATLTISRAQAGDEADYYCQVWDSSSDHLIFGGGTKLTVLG	=	6.57e+06
anti-mutCALR antibody clone 60 (antibody, human IgG1, lambda, N297A, V domains shown, human IgG1 N297A variant of clone 6) VH: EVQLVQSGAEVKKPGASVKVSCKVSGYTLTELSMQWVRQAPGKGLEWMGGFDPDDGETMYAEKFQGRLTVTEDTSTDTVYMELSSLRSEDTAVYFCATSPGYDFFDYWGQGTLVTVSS VL: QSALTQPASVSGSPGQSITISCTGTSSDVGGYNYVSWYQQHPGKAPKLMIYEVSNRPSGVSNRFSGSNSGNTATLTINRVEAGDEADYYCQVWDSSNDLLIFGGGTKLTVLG	=	1.44e+06
anti-mutCALR antibody clone 139 (antibody, human IgG1, lambda, N297A, V domains shown, human IgG1 N297A variant of clone 15) VH: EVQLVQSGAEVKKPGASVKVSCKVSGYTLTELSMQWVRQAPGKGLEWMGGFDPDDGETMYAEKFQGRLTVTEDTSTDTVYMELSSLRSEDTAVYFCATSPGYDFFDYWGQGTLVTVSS VL: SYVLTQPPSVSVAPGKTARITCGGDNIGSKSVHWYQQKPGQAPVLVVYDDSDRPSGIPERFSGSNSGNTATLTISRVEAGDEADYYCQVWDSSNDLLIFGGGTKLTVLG	=	987000
